Quick reference: activity coefficient of the listed items.
# Procedure details: activity coefficient (dimensionless); of the first substance listed, at infinite dilution; xn = mol fraction of the nth substance listed
# Applied conditions: 323.15 K; Liquid; Chromatography; x1 = 0
Write the number on its own, no unit after it.

Q: Param item = C#CCCCC [1-hexyne] + CN(C)c1cc[n+](COCCCOC[n+]2ccc(N(C)C)cc2)cc1.O=S(=O)([N-]S(=O)(=O)C(F)(F)F)C(F)(F)F.O=S(=O)([N-]S(=O)(=O)C(F)(F)F)C(F)(F)F ; retrieve measured activity coefficient.
Ans: 3

Q: Param item = ClCCl [dichloromethane] + CCCOC[n+]1ccn(Cc2ccccc2)c1.F[B-](F)(F)F ; retrieve measured activity coefficient.
Ans: 0.78

Q: Param item = CCO [ethanol] + CCCOC[n+]1ccc(N(C)C)cc1.O=S(=O)([N-]S(=O)(=O)C(F)(F)F)C(F)(F)F ; retrieve measured activity coefficient.
Ans: 1.57

Q: Param item = CCO [ethanol] + CCCCCCCCn1cc[n+](COCCCOC[n+]2ccn(CCCCCCCC)c2C)c1C.N#C[N-]C#N.N#C[N-]C#N ; retrieve measured activity coefficient.
Ans: 0.3

Q: Param item = CO [methanol] + CCCOC[n+]1ccn(Cc2ccccc2)c1.N#C[N-]C#N ; retrieve measured activity coefficient.
Ans: 0.39

Q: Param item = CCC[N+](=O)[O-] [1-nitropropane] + CCCOC[n+]1ccc(N(C)C)cc1.O=S(=O)([N-]S(=O)(=O)C(F)(F)F)C(F)(F)F ; retrieve measured activity coefficient.
Ans: 0.68

----------
# Procedure details: activity coefficient (dimensionless); of the first substance listed, at infinite dilution; xn = mol fraction of the nth substance listed
# Applied conditions: 323.15 K; Liquid; Chromatography; x1 = 0
Reported property: activity coefficient
Write the number on its own, no unit after it.

Worked set:
- CC1CCCC1 [methylcyclopentane] + CCCCCCCCn1cc[n+](COCCCOC[n+]2ccn(CCCCCCCC)c2C)c1C.O=S(=O)([N-]S(=O)(=O)C(F)(F)F)C(F)(F)F.O=S(=O)([N-]S(=O)(=O)C(F)(F)F)C(F)(F)F: 2.52
- CCCC(C)=O [pentan-2-one] + CCCOC[n+]1ccn(C)c1.F[B-](F)(F)F: 3.32
- CCc1ccccc1 [ethylbenzene] + CCCOC[n+]1ccn(C)c1.O=S(=O)([N-]S(=O)(=O)C(F)(F)F)C(F)(F)F: 2.55

Q: Param item = CCCCCC [hexane] + Cn1cc[n+](COCCCOC[n+]2ccn(C)c2)c1.O=S(=O)([N-]S(=O)(=O)C(F)(F)F)C(F)(F)F.O=S(=O)([N-]S(=O)(=O)C(F)(F)F)C(F)(F)F ; retrieve measured activity coefficient.
Ans: 18.2

Q: Param item = CO [methanol] + Cn1cc[n+](COCCCOC[n+]2ccn(C)c2)c1.O=S(=O)([N-]S(=O)(=O)C(F)(F)F)C(F)(F)F.O=S(=O)([N-]S(=O)(=O)C(F)(F)F)C(F)(F)F ; retrieve measured activity coefficient.
Ans: 0.76

Q: Param item = CCCC(C)=O [pentan-2-one] + CCCOC[n+]1ccn(Cc2ccccc2)c1.O=S(=O)([N-]S(=O)(=O)C(F)(F)F)C(F)(F)F ; retrieve measured activity coefficient.
Ans: 0.46

Q: Param item = ClCCl [dichloromethane] + CCCCCCCCn1cc[n+](COCCC)c1C.N#C[N-]C#N ; retrieve measured activity coefficient.
Ans: 0.34

Q: Param item = C[N+](=O)[O-] [nitromethane] + CCCOC[n+]1ccc(N(C)C)cc1.O=S(=O)([N-]S(=O)(=O)C(F)(F)F)C(F)(F)F ; retrieve measured activity coefficient.
Ans: 0.54
